Origin of measurements: paper PMC7819943

I'd be grateful if you could share measured binding signal for these entries.
target: OsWRKY34 (Oryza sativa, UniProt Q0JBA9 1-250); test: protein-binding microarray (RPBM); PBS, 2% BSA, 51.3 ng/ul salmon testes DNA, 50 uM zinc acetate, 200 nM TF, 25 C, 1 h; high values mean tight binding; settings: protein: recombinant; tags: N-terminal polyhistidine and DsRed monomer fusion (pET32a); label: CyDye5-dUTP incorporated in the synthesized complementary strand; 3' TTTTT single-stranded linker to array surface; dsDNA, one strand shown
Sequence (Q0JBA9 entry or part of it): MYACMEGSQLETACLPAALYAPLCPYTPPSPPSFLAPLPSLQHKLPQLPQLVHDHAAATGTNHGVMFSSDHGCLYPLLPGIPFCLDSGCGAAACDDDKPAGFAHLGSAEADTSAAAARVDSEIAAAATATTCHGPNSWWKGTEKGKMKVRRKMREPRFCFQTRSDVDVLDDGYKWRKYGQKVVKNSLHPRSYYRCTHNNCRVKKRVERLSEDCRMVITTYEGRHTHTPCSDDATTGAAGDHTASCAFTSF
In all, about 68,000 sequences were measured (“fluorescence intensity (a.u.)”: median about 9,100, highest 2% from about 16,000 on). The full list was thinned out, with the highest values kept by preference.

Ask: Please report binding signal for the following sequence: AACCAAACAACCGTTGTCTTGGCACAGCTGTCGCAACCTGCGGAGTCACCTAGTGCAG
Reply: 8200 fluorescence intensity (a.u.)

Ask: Please report binding signal for the following sequence: GTGTTTGATTTGCCTCTCTTAAGAACCACTGTGAAAACATCGGAGTCACCTAGTGCAG
Reply: 9680 fluorescence intensity (a.u.)

Ask: Please report binding signal for the following sequence: AAGCTAGTCAAACCGTTGACTACCACTGTCTTTGTTGCGCCGGAGTCACCTAGTGCAG
Reply: 16800 fluorescence intensity (a.u.)

Ask: Please report binding signal for the following sequence: AACCATCATGACCGGCTACCACTAAGCTGCGCCTGTCTACCGGAGTCACCTAGTGCAG
Reply: 8700 fluorescence intensity (a.u.)

Ask: Please report binding signal for the following sequence: GCTGCACAGCTAGTCAACACAAGCTAGTCAAACCGTTGACCGGAGTCACCTAGTGCAG
Reply: 19200 fluorescence intensity (a.u.)

Ask: Please report binding signal for the following sequence: GCCGGAGTCCATCGCCCTACATTGCCCACCAACCGCACGCCGGAGTCACCTAGTGCAG
Reply: 10200 fluorescence intensity (a.u.)

Ask: Please report binding signal for the following sequence: ATACGAGCCAAAGACCGTTGACAAGCTAGTCAACAGTCATCGGAGTCACCTAGTGCAG
Reply: 8910 fluorescence intensity (a.u.)

Ask: Please report binding signal for the following sequence: CTCACCGCGCCGCTCACCTCCTCAAGACCACCACCCACCACGGAGTCACCTAGTGCAG
Reply: 9730 fluorescence intensity (a.u.)

Ask: Please report binding signal for the following sequence: TTTTGTCTACTGCGCCTACCACGCCGTTGTCCACTACCTCCGGAGTCACCTAGTGCAG
Reply: 10400 fluorescence intensity (a.u.)

====

biological target: OsWRKY34 (Oryza sativa, UniProt Q0JBA9 1-250); test: protein-binding microarray (RPBM); PBS, 2% BSA, 51.3 ng/ul salmon testes DNA, 50 uM zinc acetate, 200 nM TF, 25 C, 1 h; high values mean tight binding; settings: protein: recombinant; tags: N-terminal polyhistidine and DsRed monomer fusion (pET32a); label: CyDye5-dUTP incorporated in the synthesized complementary strand; 3' TTTTT single-stranded linker to array surface; dsDNA, one strand shown
The full ranking holds about 68,000 sequences; the median of “fluorescence intensity (a.u.)” is about 9,100, and the highest 2% start at about 16,000. Shown is part of a subset that was picked to be rich in the highest values.
QUANTITY_MEASURED: binding signal

Ask: Please report binding signal for the following sequence: GTATGTGGGTGGTGGTATTTTTTTTATCCTGGTTACGACCCGGAGTCACCTAGTGCAG
Reply: 19700 fluorescence intensity (a.u.)

Ask: Please report binding signal for the following sequence: GGAGGTGGAAAATCTTTGTTTTTTTCCTGGTTACGATCTCCGGAGTCACCTAGTGCAG
Reply: 9150 fluorescence intensity (a.u.)

Ask: Please report binding signal for the following sequence: ACCCATCCATCGCCAGCCATGCACACCCTCGCTCTGACGACGGAGTCACCTAGTGCAG
Reply: 8640 fluorescence intensity (a.u.)

Ask: Please report binding signal for the following sequence: TTAATTACTTCCTTTTCTTTTCTTTTCTTTTCCTTTTTTTCGGAGTCACCTAGTGCAG
Reply: 8110 fluorescence intensity (a.u.)

Ask: Please report binding signal for the following sequence: GATGTGTTGGCTGTCTTTGTTTTTTTTTTCCTGGTTTACCCGGAGTCACCTAGTGCAG
Reply: 14000 fluorescence intensity (a.u.)

Ask: Please report binding signal for the following sequence: GTGGGTGGTGGTTTTTTTTTCCTTTTTCCTGGTTACGACCCGGAGTCACCTAGTGCAG
Reply: 23700 fluorescence intensity (a.u.)

Ask: Please report binding signal for the following sequence: CTTCGGTGTACTTTTTTCTTTTCTAGTTCCTGGTTCTAATCGGAGTCACCTAGTGCAG
Reply: 18000 fluorescence intensity (a.u.)

Ask: Please report binding signal for the following sequence: TAAGGTTTCTTCTGGGATCATTACATATACCTATATGGTTCGGAGTCACCTAGTGCAG
Reply: 8100 fluorescence intensity (a.u.)

Ask: Please report binding signal for the following sequence: TGTGGATGATGGTATTTTTTTTCCTTTTTCCTAGTTACGACGGAGTCACCTAGTGCAG
Reply: 9100 fluorescence intensity (a.u.)

Ask: Please report binding signal for the following sequence: TCCGACATGCTGCCCTCGATCGAGCTCATCCATCGGCCCTCGGAGTCACCTAGTGCAG
Reply: 9550 fluorescence intensity (a.u.)

Ask: Please report binding signal for the following sequence: TGAGTCTTCACAATCCCATGTCACATGATCATGTGATCTTCGGAGTCACCTAGTGCAG
Reply: 9860 fluorescence intensity (a.u.)

Ask: Please report binding signal for the following sequence: TGGTTGTGTTCTTGTTGGCTTATACCTTTTTTATGTTTTGCGGAGTCACCTAGTGCAG
Reply: 9260 fluorescence intensity (a.u.)

Ask: Please report binding signal for the following sequence: AACTTTTTCATGTCACTTCACTTTTTTTTGTTAGCAGCCTCGGAGTCACCTAGTGCAG
Reply: 11200 fluorescence intensity (a.u.)

Ask: Please report binding signal for the following sequence: CCATCGCCATTGACACGGACACCTTACCTGTCACAAAGAACGGAGTCACCTAGTGCAG
Reply: 8160 fluorescence intensity (a.u.)

Ask: Please report binding signal for the following sequence: GGTTTTTCCTAGTTTTGAGATTTACGTGCTATTTTGTGAACGGAGTCACCTAGTGCAG
Reply: 8950 fluorescence intensity (a.u.)

Ask: Please report binding signal for the following sequence: CTTCCTTTTCTCTTCTTCTTCTTCTTCTTTTGCGTGGGGACGGAGTCACCTAGTGCAG
Reply: 9650 fluorescence intensity (a.u.)

Ask: Please report binding signal for the following sequence: AATTTATAACCGTGACCTGCTGCCATATGCTAACCGTTTACGGAGTCACCTAGTGCAG
Reply: 8260 fluorescence intensity (a.u.)

Ask: Please report binding signal for the following sequence: TCATTTGATTTATTGTTAAATATATTTTTATGTATACATACGGAGTCACCTAGTGCAG
Reply: 8550 fluorescence intensity (a.u.)

Ask: Please report binding signal for the following sequence: TCTCCTCACCGGCCCCTCTTCCCCTTCGATTCTGGCGGCTCGGAGTCACCTAGTGCAG
Reply: 8880 fluorescence intensity (a.u.)

====

molecular target: OsWRKY34 (Oryza sativa, UniProt Q0JBA9 1-250); assay: protein-binding microarray (RPBM); PBS, 2% BSA, 51.3 ng/ul salmon testes DNA, 50 uM zinc acetate, 200 nM TF, 25 C, 1 h; high values mean tight binding; details: protein: recombinant; tags: N-terminal polyhistidine and DsRed monomer fusion (pET32a); label: CyDye5-dUTP incorporated in the synthesized complementary strand; 3' TTTTT single-stranded linker to array surface; dsDNA, one strand shown
Whole data set: some 68,000 sequences, median “fluorescence intensity (a.u.)” near 9,100, cut for the highest 2% near 16,000. The list comes from a sample in which the highest values are over-represented; it also holds close analogues and randomly drawn sequences.
QUANTITY_MEASURED: binding signal

Ask: Please report binding signal for the following sequence: TTTTTTTTTTATCCGTCCCTACTCCTCGCACCTTAAAAATCGGAGTCACCTAGTGCAG
Reply: 10300 fluorescence intensity (a.u.)

Ask: Please report binding signal for the following sequence: CCCGTCTCCTCGCCTGCCGATCTCCATCCTGCTAGCAGAGCGGAGTCACCTAGTGCAG
Reply: 8930 fluorescence intensity (a.u.)

Ask: Please report binding signal for the following sequence: GAGGGTGGGTGCTTGCTGGCCAGACATTAAAACAATGTGTCGGAGTCACCTAGTGCAG
Reply: 9670 fluorescence intensity (a.u.)

Ask: Please report binding signal for the following sequence: AAAGTTGGGGTCAGGTGGTTTTGGTTCTGTGTTCAAGGGACGGAGTCACCTAGTGCAG
Reply: 11500 fluorescence intensity (a.u.)

Ask: Please report binding signal for the following sequence: GCCAAGACGCCCAAAGCACACACTCTCTCTCGCTGTCTTTCGGAGTCACCTAGTGCAG
Reply: 8490 fluorescence intensity (a.u.)
